tested on: Escherichia coli TOP10; experiment: shrunken log2 fold change of peptide-encoding DNA abundance (4.5 h post-induction vs induction); higher = less antimicrobial activity (less host growth inhibition); details: time post-induction: 4.5 h; library: site-saturation at positions 5, 18, 19, 20
This listing pairs sequences with measured shrunken log2 fold change.
QUANTITY KIND: shrunken log2 fold change

# SEQUENCE ENTRY, QUANTITY KIND, MEASURED VALUE
rows = [
    ("RRIRIRPPRLPRPRPRPRTDPRP", "shrunken log2 fold change", -0.158),
    ("RRIRYRPPRLPRPRPRPPPQPRP", "shrunken log2 fold change", 0.776),
    ("RRIRNRPPRLPRPRPRPDKGPRP", "shrunken log2 fold change", 0.00408),
    ("RRIRNRPPRLPRPRPRPNDAPRP", "shrunken log2 fold change", -0.221),
    ("RRIRARPPRLPRPRPRPGRMPRP", "shrunken log2 fold change", 0.237),
    ("RRIRPRPPRLPRPRPRPLIYPRP", "shrunken log2 fold change", -0.457),
    ("RRIRVRPPRLPRPRPRPLFRPRP", "shrunken log2 fold change", -0.134),
    ("RRIRNRPPRLPRPRPRPYHCPRP", "shrunken log2 fold change", -0.0116),
    ("RRIRHRPPRLPRPRPRPQNEPRP", "shrunken log2 fold change", -0.133),
    ("RRIRARPPRLPRPRPRPMMIPRP", "shrunken log2 fold change", 0.313),
    ("RRIRNRPPRLPRPRPRPAERPRP", "shrunken log2 fold change", -0.117),
    ("RRIRYRPPRLPRPRPRPEAYPRP", "shrunken log2 fold change", -0.185),
    ("RRIRSRPPRLPRPRPRPLIVPRP", "shrunken log2 fold change", -0.206),
    ("RRIRCRPPRLPRPRPRPENAPRP", "shrunken log2 fold change", 0.117),
    ("RRIRSRPPRLPRPRPRPCHKPRP", "shrunken log2 fold change", -1.16),
]

----------
shrunken log2 fold change: recorded values
tested on: Escherichia coli TOP10; assay: shrunken log2 fold change of peptide-encoding DNA abundance (4.5 h post-induction vs induction); higher = less antimicrobial activity (less host growth inhibition); conditions: time post-induction: 4.5 h; library: site-saturation at positions 5, 18, 19, 20

# SEQUENCE ENTRY, shrunken log2 fold change
data = [
    ("RRIRNRPPRLPRPRPRPFKVPRP", 0.0253),
    ("RRIRVRPPRLPRPRPRPCYMPRP", 0.155),
    ("RRIRIRPPRLPRPRPRPVMWPRP", -0.0605),
    ("RRIRPRPPRLPRPRPRPRDTPRP", -0.0427),
    ("RRIRCRPPRLPRPRPRPIGHPRP", -0.312),
    ("RRIRGRPPRLPRPRPRPSHWPRP", 0.157),
    ("RRIRHRPPRLPRPRPRPADMPRP", 0.0208),
    ("RRIRLRPPRLPRPRPRPQMTPRP", -0.0928),
    ("RRIRPRPPRLPRPRPRPVGDPRP", 0.365),
    ("RRIRERPPRLPRPRPRPAGPPRP", -0.0342),
    ("RRIRKRPPRLPRPRPRPYKHPRP", -0.347),
    ("RRIRDRPPRLPRPRPRPLGFPRP", -0.0377),
    ("RRIRWRPPRLPRPRPRPLYGPRP", -0.369),
    ("RRIRCRPPRLPRPRPRPMIDPRP", 0.0647),
    ("RRIRYRPPRLPRPRPRPDQHPRP", -0.13),
    ("RRIRSRPPRLPRPRPRPIQFPRP", -0.396),
    ("RRIRQRPPRLPRPRPRPGCEPRP", 0.0109),
    ("RRIRTRPPRLPRPRPRPHRHPRP", -0.211),
    ("RRIRCRPPRLPRPRPRPWNAPRP", -0.129),
    ("RRIRQRPPRLPRPRPRPKHGPRP", 0.00489),
    ("RRIRLRPPRLPRPRPRPPYLPRP", -0.0206),
    ("RRIRYRPPRLPRPRPRPSHSPRP", -0.0971),
    ("RRIRNRPPRLPRPRPRPMGGPRP", 0.0264),
    ("RRIRERPPRLPRPRPRPRQGPRP", 0.235),
    ("RRIRYRPPRLPRPRPRPGDAPRP", 0.0773),
    ("RRIRLRPPRLPRPRPRPQKSPRP", -0.139),
    ("RRIRERPPRLPRPRPRPLWQPRP", 0.113),
    ("RRIRHRPPRLPRPRPRPYCPPRP", -0.0225),
    ("RRIRLRPPRLPRPRPRPDGMPRP", -0.153),
    ("RRIRCRPPRLPRPRPRPFPNPRP", -0.0279),
    ("RRIRERPPRLPRPRPRPDEPPRP", -0.0946),
    ("RRIRIRPPRLPRPRPRPICEPRP", -0.0283),
]

----------
Below, each of the sequences is paired with its reported shrunken log2 fold change value.
tested on: Escherichia coli TOP10; experiment: shrunken log2 fold change of peptide-encoding DNA abundance (4.5 h post-induction vs induction); higher = less antimicrobial activity (less host growth inhibition); settings: time post-induction: 4.5 h; library: site-saturation at positions 5, 18, 19, 20
QUANTITY KIND: shrunken log2 fold change

# SEQUENCE ENTRY, MEASURED VALUE
records = [
    ("RRIRWRPPRLPRPRPRPCVWPRP", 0.738),
    ("RRIRGRPPRLPRPRPRPVWPPRP", 0.947),
    ("RRIRSRPPRLPRPRPRPIEIPRP", -0.00473),
    ("RRIRLRPPRLPRPRPRPCAMPRP", 0.00887),
    ("RRIRERPPRLPRPRPRPLLLPRP", -0.305),
    ("RRIRHRPPRLPRPRPRPARFPRP", 0.358),
    ("RRIRWRPPRLPRPRPRPARHPRP", 0.31),
    ("RRIRFRPPRLPRPRPRPYGQPRP", -0.101),
    ("RRIRGRPPRLPRPRPRPPWRPRP", 1.07),
    ("RRIRCRPPRLPRPRPRPSTHPRP", -0.454),
    ("RRIRWRPPRLPRPRPRPAVIPRP", 0.0266),
    ("RRIRMRPPRLPRPRPRPIWAPRP", 0.114),
    ("RRIRDRPPRLPRPRPRPICGPRP", 0.0876),
    ("RRIRARPPRLPRPRPRPDFSPRP", 0.000254),
    ("RRIRLRPPRLPRPRPRPAQSPRP", 0.485),
    ("RRIRNRPPRLPRPRPRPGKWPRP", -0.0427),
    ("RRIRQRPPRLPRPRPRPFRIPRP", -0.0135),
    ("RRIRKRPPRLPRPRPRPTLPPRP", 0.878),
    ("RRIRDRPPRLPRPRPRPFYNPRP", -0.732),
    ("RRIRTRPPRLPRPRPRPISEPRP", 0.00252),
    ("RRIRQRPPRLPRPRPRPIHTPRP", 0.0773),
    ("RRIRIRPPRLPRPRPRPQVAPRP", -0.333),
    ("RRIRKRPPRLPRPRPRPWDDPRP", 0.0248),
    ("RRIRIRPPRLPRPRPRPIMIPRP", -0.0324),
    ("RRIRSRPPRLPRPRPRPMVAPRP", 0.0774),
    ("RRIRHRPPRLPRPRPRPSHAPRP", 0.0238),
    ("RRIRVRPPRLPRPRPRPNPRPRP", 0.21),
    ("RRIRHRPPRLPRPRPRPQLFPRP", -0.172),
    ("RRIRHRPPRLPRPRPRPWCIPRP", -0.228),
    ("RRIRLRPPRLPRPRPRPMPIPRP", 0.301),
    ("RRIRARPPRLPRPRPRPFDPPRP", 0.0109),
    ("RRIRRRPPRLPRPRPRPGMPPRP", 0.463),
]

----------
system: Escherichia coli TOP10; assay: shrunken log2 fold change of peptide-encoding DNA abundance (4.5 h post-induction vs induction); higher = less antimicrobial activity (less host growth inhibition); settings: time post-induction: 4.5 h; library: site-saturation at positions 5, 18, 19, 20;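 also: peptides expressed intracellularly from a pBAD plasmid library in pooled LB shake-flask culture, induced with 0.3% L-arabinose, DNA abundance read by NGS, three biological replicates, DESeq2 with apeglm shrinkage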
Recorded shrunken log2 fold change split into classes group A (below -0.1), group B (-0.1 to below 0.009), group C (0.009 or more)

# SEQUENCE ENTRY, DISCRETE LABEL
records = [
    ("RRIRMRPPRLPRPRPRPPQMPRP", "group C"),
    ("RRIRRRPPRLPRPRPRPIRIPRP", "group A"),
    ("RRIRTRPPRLPRPRPRPNCFPRP", "group B"),
    ("RRIRLRPPRLPRPRPRPIHRPRP", "group A"),
    ("RRIRYRPPRLPRPRPRPYIIPRP", "group A"),
    ("RRIRYRPPRLPRPRPRPITIPRP", "group A"),
    ("RRIRDRPPRLPRPRPRPCCGPRP", "group C"),
    ("RRIRYRPPRLPRPRPRPQPPPRP", "group C"),
    ("RRIRNRPPRLPRPRPRPNLNPRP", "group A"),
    ("RRIRPRPPRLPRPRPRPYTRPRP", "group A"),
    ("RRIRARPPRLPRPRPRPHHVPRP", "group B"),
    ("RRIRFRPPRLPRPRPRPTVFPRP", "group B"),
    ("RRIRIRPPRLPRPRPRPIDVPRP", "group B"),
    ("RRIRMRPPRLPRPRPRPPSEPRP", "group C"),
    ("RRIRDRPPRLPRPRPRPPWVPRP", "group B"),
]

All values here come from the supplement of paper PMC9112550.
